Target: Ago2 A481T (Homo sapiens, UniProt Q9UKV8 1-859, A481T)
Sequence (Q9UKV8 whole entry A481T): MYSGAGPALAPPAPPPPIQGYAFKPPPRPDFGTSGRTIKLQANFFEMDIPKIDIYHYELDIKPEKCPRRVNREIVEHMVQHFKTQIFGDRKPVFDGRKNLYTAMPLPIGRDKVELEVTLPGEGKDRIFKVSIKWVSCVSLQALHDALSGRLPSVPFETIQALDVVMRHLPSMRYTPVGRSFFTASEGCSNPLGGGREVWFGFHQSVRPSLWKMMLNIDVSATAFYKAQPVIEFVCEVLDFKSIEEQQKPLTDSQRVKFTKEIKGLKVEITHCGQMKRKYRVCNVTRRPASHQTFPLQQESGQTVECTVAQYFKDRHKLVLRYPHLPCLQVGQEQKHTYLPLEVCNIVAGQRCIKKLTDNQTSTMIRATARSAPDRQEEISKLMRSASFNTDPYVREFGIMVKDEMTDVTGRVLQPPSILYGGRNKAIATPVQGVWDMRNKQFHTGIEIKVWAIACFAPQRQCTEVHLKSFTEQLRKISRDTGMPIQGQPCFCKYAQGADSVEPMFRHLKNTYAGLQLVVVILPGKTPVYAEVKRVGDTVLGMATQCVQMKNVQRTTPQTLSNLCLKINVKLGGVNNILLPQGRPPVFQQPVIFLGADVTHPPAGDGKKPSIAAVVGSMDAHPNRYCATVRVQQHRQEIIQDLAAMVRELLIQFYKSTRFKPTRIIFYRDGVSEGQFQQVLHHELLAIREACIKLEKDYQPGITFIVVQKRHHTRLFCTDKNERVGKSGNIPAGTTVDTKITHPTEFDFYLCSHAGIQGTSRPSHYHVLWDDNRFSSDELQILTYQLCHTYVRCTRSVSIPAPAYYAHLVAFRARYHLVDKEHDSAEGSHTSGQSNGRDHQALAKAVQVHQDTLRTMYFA
Experiment: filter binding; guide-loaded Ago2; target Kd; Filter binding: 30 mM Tris pH 8.0, 0.1 M K acetate, 2 mM Mg acetate, 0.5 mM TCEP, 0.005% NP-40, 0.01 mg/ml yeast tRNA, room temp, 45 min, 0.1 nM target; smFRET: 50 mM Tris pH 8.0, 50 mM NaCl, 60 mM KCl (RISC assembly buffer), 23 C
Details: protein: recombinant; tags: His6; guide g2-g9 pairs target nt 1-8; 3' overhangs; t1 = target nt 9
test_readout: pKd
Kindly note that pKd refers to -log10 of the concentration in mol/L and answer with the value alone.

- binder: "guide + t1G target (dsRNA, 5'-phosphate on guide) RNA 1: UUCACAUUGCCCAAGUCUCUU RNA 2: CAAUGUGAGAA"
  pKd: 8.74

Now take the following binder into account.
For record guide + t1A target (dsRNA, 5'-phosphate on guide) RNA 1: UUCACAUUGCCCAAGUCUCUU RNA 2: CAAUGUGAAAA the listed pKd is 8.82
